test system: Saccharomyces cerevisiae; assay: Prodrug stability in Saccharomyces cerevisiae ADCDR1 expressing Candida albicans CDR1 efflux pump assessed as compound cleavage rate measured per mg of protein; assay type: ADME, organism-based; settings: in vivo
Non-standard residues stand in square brackets, D forms with d. Residues, ends and D or L forms follow the SMILES beside them. *: point of attachment. Phe(3-F) = N[C@@H](Cc1cccc(F)c1)C(=O)O; Ethyl(2-NH2) = NCC*
Readout type: Stability (nmol/min)
State just the number; it will be interpreted in nmol/min.

Some compounds with recorded Stability:
> print(dat)
                                   compound  readout.type  numeric.result
1  CC(C)C[C@H](NC(=O)[C@@H](N)COCCN)C(=O)NCC(=O)O     Stability              14
2  CC(C)C[C@H](N)C(=O)N[C@@H](Cc1cccc(F)c1)C(=O)O (H-Leu-[Phe(3-F)]-OH)     Stability              14
3  CCC[C@H](NC(=O)[C@@H](N)CCCCN)C(=O)N[C@@H](CNC(=O)/C=C/C(=O)OC)C(=O)O     Stability              14

Form: item CSCC[C@H](NC(=O)[C@@H](N)CCSC)C(=O)N[C@@H](Cc1cccc(F)c1)C(=O)O (H-Met-Met-[Phe(3-F)]-OH) ; test system Saccharomyces cerevisiae; Stability: 14

Form field, Stability with Saccharomyces cerevisiae, item CC(C)C[C@H](NC(=O)[C@H](CC(C)C)NC(=O)[C@H](CC(C)C)NC(=O)[C@@H](N)COCCN)C(=O)NCC(=O)O (H-S(Ethyl(2-NH2))LLLG-OH) : 14

Readout Stability for CC(C)C[C@H](NC(=O)[C@H](CC(C)C)NC(=O)[C@@H](N)COCCN)C(=O)NCC(=O)O (H-S(Ethyl(2-NH2))LLG-OH) , test system Saccharomyces cerevisiae, was 14

// Stability (Saccharomyces cerevisiae) for CCC[C@H](N)C(=O)N[C@@H](CNC(=O)/C=C/C(=O)OC)C(=O)O = 14

====

test system: Saccharomyces cerevisiae; assay: Drug uptake in Saccharomyces cerevisiae ADCDR1 at 200 uM pretreated for 10 mins measured after 60 mins by fluorescamine staining in presence of fluconazole; type: ADME, organism-based; conditions: in vivo, 1 h
Non-standard residues stand in square brackets, D forms with d. Residues, ends and D or L forms follow the SMILES beside them. Phe(3-F) = N[C@@H](Cc1cccc(F)c1)C(=O)O
// reported Drug uptake per item
Enter your answer as a number in nmol/min/mg; do not include the unit.

The following molecules have reported results that may help.
> print(dat)
                                   molecule  unit.symbol  numeric.result
1  CC(C)C[C@H](NC(=O)[C@@H](N)COCCN)C(=O)NCC(=O)O  nmol/min/mg            1.32
2  CC(C)C[C@H](N)C(=O)N[C@@H](Cc1cccc(F)c1)C(=O)O (H-Leu-[Phe(3-F)]-OH)  nmol/min/mg            1.82
3  C[C@H](N)C(=O)N[C@@H](C)C(=O)O (H-Ala-Ala-OH)  nmol/min/mg             4.2

Entry C[C@@H]([C@H](N)C(=O)N[C@H](C(=O)O)[C@H]1O[C@@H](n2ccc(=O)[nH]c2=O)[C@H](O)[C@@H]1O)[C@H](O)c1ccc(O)cn1 ; assay system Saccharomyces cerevisiae; Drug uptake recorded at 0.98

====

system: Candida albicans; assay: Antifungal activity against wild type Candida albicans 10261 in RPMI-1640 buffered medium after 24 hrs by microdilution method; type: functional; settings: Candida albicans, 10261, 24 h; read-out: MIC
Non-standard residues stand in square brackets, D forms with d. Residues, ends and D or L forms follow the SMILES beside them. Phe(3-F) = N[C@@H](Cc1cccc(F)c1)C(=O)O
Readout type: log10(MIC) (log10 of the value in µg/mL)
Hey, these are logged values: log10 of MIC, µg/mL being the unit before logging.

Entry [N-]=[N+]=CC(=O)CC[C@H](N)C(=O)O , log10(MIC) reported as 0.60

Memo: NC(CC(=O)NO)C(=O)O (configuration not stated) , reported log10(MIC): 2.41

// recorded log10(MIC) for CCC[C@H](NC(=O)[C@@H](N)CCCCN)C(=O)N[C@@H](CNC(=O)/C=C/C(=O)OC)C(=O)O : 0.90

Recorded log10(MIC) (molecule NC(Cc1cccc(F)c1)C(=O)O (configuration not stated) ): 2.41

Reported log10(MIC) for CC(C)C[C@H](N)C(=O)N[C@@H](Cc1cccc(F)c1)C(=O)O (H-Leu-[Phe(3-F)]-OH) was 1.81

Input N[C@H]1CCC[C@H]1C(=O)O . Output log10(MIC): 0.00

// sample C[C@@H]([C@H](N)C(=O)N[C@H](C(=O)O)[C@H]1O[C@@H](n2ccc(=O)[nH]c2=O)[C@H](O)[C@@H]1O)[C@H](O)c1ccc(O)cn1 , its log10(MIC) was 1.51

Lookup result for CSCC[C@H](NC(=O)[C@@H](N)CCSC)C(=O)N[C@@H](Cc1cccc(F)c1)C(=O)O (H-Met-Met-[Phe(3-F)]-OH) ; measured log10(MIC): 2.11

// CC(C)C[C@H](NC(=O)[C@@H](N)COCCN)C(=O)NCC(=O)O : log10(MIC) value = 2.11

# molecule OC(Cn1cncn1)(Cn1cncn1)c1ccc(F)cc1F ; its log10(MIC) = 0.60

Lab note: measured log10(MIC) of CCC[C@H](N)C(=O)N[C@@H](CNC(=O)/C=C/C(=O)OC)C(=O)O was 0.30

The molecule listed as [N-]=[N+]=CC(=O)OC[C@H](N)C(=O)O has a reported log10(MIC) of 1.20

====

tested on: Saccharomyces cerevisiae; assay: Drug uptake in Saccharomyces cerevisiae AD12345678 at 200 uM pretreated for 10 mins measured after 60 mins by fluorescamine staining; type: ADME, organism-based; settings: in vivo, 1 h
Residues, ends and D or L forms follow the SMILES beside them. *: point of attachment. Ethyl(2-NH2) = NCC*
Returns one of 1.0 or 0.0; 1.0 when Drug uptake is >= 2 nmol/min/mg.

Field: example entries. Status: answers known.
> print(dat)
                                   compound  assigned.category
1  C[C@H](N)C(=O)N[C@@H](C)C(=O)O (H-Ala-Ala-OH)                1.0
2  NC(Cc1cccc(F)c1)C(=O)O (stereo unspecified) [M-FLUOROPHENYLALANINE]                0.0
3  CCC[C@H](N)C(=O)N[C@@H](CNC(=O)/C=C/C(=O)OC)C(=O)O                0.0
4  C[C@@H]([C@H](N)C(=O)N[C@H](C(=O)O)[C@H]1O[C@@H](n2ccc(=O)[nH]c2=O)[C@H](O)[C@@H]1O)[C@H](O)c1ccc(O)cn1 [NIKKOMYCIN]                0.0
5  CC(C)C[C@H](NC(=O)[C@H](CC(C)C)NC(=O)[C@H](CC(C)C)NC(=O)[C@@H](N)COCCN)C(=O)NCC(=O)O (H-S(Ethyl(2-NH2))LLLG-OH)                0.0

Please indicate if the recorded Drug uptake for C[C@H](N)C(=O)N[C@@H](C)C(=O)N[C@@H](C)C(=O)O meets or exceeds 2 nmol/min/mg.
1.0

Tell me whether Drug uptake is at least 2 nmol/min/mg here: CC(C)C[C@H](NC(=O)[C@H](CC(C)C)NC(=O)[C@@H](N)COCCN)C(=O)NCC(=O)O (H-S(Ethyl(2-NH2))LLG-OH)
0.0

Can CCC[C@H](NC(=O)[C@@H](N)CCCCN)C(=O)N[C@@H](CNC(=O)/C=C/C(=O)OC)C(=O)O be said to have Drug uptake at or above 2 nmol/min/mg?
0.0

hey, is Drug uptake for this one >= 2 nmol/min/mg? CC(C)C[C@H](NC(=O)[C@@H](N)COCCN)C(=O)NCC(=O)O
0.0

Does Drug uptake meet or surpass 2 nmol/min/mg for N[C@H]1CCC[C@H]1C(=O)O ?
0.0

====

system: Candida albicans; assay: Antifungal activity against fluconazole resistant Candida albicans isolate B4 overexpressing MDR1 in RPMI-1640 buffered medium after 24 hrs by microdilution method; assay type: functional; conditions: Candida albicans, isolate B4, 24 h; read-out: MIC
Non-standard residues stand in square brackets, D forms with d. Residues, ends and D or L forms follow the SMILES beside them. Phe(3-F) = N[C@@H](Cc1cccc(F)c1)C(=O)O
# key: entry, value: MIC

> print(dat)
                                    compound     result
 1  NC(CC(=O)NO)C(=O)O (configuration not stated)  256 µg/mL
 2  CCC[C@H](NC(=O)[C@@H](N)CCCCN)C(=O)N[C@@H](CNC(=O)/C=C/C(=O)OC)C(=O)O    8 µg/mL
 3  CCC[C@H](N)C(=O)N[C@@H](CNC(=O)/C=C/C(=O)OC)C(=O)O    4 µg/mL
 4  OC(Cn1cncn1)(Cn1cncn1)c1ccc(F)cc1F [FLUCONAZOLE]   64 µg/mL
 5  NC(Cc1cccc(F)c1)C(=O)O (configuration not stated) [M-FLUOROPHENYLALANINE]  128 µg/mL
 6  CSCC[C@H](NC(=O)[C@@H](N)CCSC)C(=O)N[C@@H](Cc1cccc(F)c1)C(=O)O (H-Met-Met-[Phe(3-F)]-OH)  128 µg/mL
 7  CC(C)C[C@H](NC(=O)[C@@H](N)COCCN)C(=O)NCC(=O)O   32 µg/mL
 8  C[C@@H]([C@H](N)C(=O)N[C@H](C(=O)O)[C@H]1O[C@@H](n2ccc(=O)[nH]c2=O)[C@H](O)[C@@H]1O)[C@H](O)c1ccc(O)cn1 [NIKKOMYCIN]    8 µg/mL
 9  [N-]=[N+]=CC(=O)OC[C@H](N)C(=O)O [AZASERINE]   32 µg/mL
10                    N[C@H]1CCC[C@H]1C(=O)O    8 µg/mL

Measured MIC, [N-]=[N+]=CC(=O)CC[C@H](N)C(=O)O [6-DIAZO-5-OXO-L-NORLEUCINE] : 4 µg/mL

Given item CC(C)C[C@H](N)C(=O)N[C@@H](Cc1cccc(F)c1)C(=O)O (H-Leu-[Phe(3-F)]-OH) , the value recorded as its MIC is 64 µg/mL
